Source of measurements: patent US20220389097A1

List of Kd values.
experimental.target: T1, human TREM2-Fc (human, UniProt Q9NZC2 19-174)
T1 construct: also called hTREM2; not shown: Fc part (captured by anti-human IgG1 Fc or protein A)
T1 sequence: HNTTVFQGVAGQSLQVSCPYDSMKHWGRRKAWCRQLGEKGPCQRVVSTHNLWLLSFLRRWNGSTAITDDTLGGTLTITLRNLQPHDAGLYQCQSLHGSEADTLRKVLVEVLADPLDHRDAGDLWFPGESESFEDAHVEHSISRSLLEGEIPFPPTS
assay.remarks: SPR (Biacore T200), 37 C; TREM2-Fc on anti-human IgG1 Fc chip, Fab in solution

| binder | Kd (pM) |
| --- | --- |
| Para.09 Fab with the 3.27H7 light chain (Fab, V domains shown, Fab fragment; also called Para.09 (3.27H7); Para.09-L27H7) VH: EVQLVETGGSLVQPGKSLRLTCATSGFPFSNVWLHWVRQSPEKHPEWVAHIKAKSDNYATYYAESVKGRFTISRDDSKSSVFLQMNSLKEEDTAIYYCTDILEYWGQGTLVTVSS VL: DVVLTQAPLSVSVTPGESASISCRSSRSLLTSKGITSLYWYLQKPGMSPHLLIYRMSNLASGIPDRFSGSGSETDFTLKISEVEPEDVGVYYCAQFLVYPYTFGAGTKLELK | 4.2 |
| Para.09 Fab with the 3.50G1 light chain (Fab, V domains shown, also called Para.09 (3.50G1)) VH: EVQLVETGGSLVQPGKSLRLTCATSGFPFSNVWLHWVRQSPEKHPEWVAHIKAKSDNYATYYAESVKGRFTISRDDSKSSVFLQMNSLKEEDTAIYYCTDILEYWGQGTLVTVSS VL: DTVLTQAPLSVSVTPGESASISCRSNKSLLGIRDITSLYWFLQKPGKSPQLLIYRMSNLASGVPDRFSGSGSETDFTLKISEVETEDVGVYYCAQFLRYPYTFGPGTKLELQ | 1.1 |
| Para.09 Fab with the 3.10C2 light chain (Fab, V domains shown, also called Para.09 (3.10C2)) VH: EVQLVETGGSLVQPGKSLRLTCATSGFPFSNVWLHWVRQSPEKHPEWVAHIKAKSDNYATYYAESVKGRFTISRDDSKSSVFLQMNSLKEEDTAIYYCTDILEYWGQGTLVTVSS VL: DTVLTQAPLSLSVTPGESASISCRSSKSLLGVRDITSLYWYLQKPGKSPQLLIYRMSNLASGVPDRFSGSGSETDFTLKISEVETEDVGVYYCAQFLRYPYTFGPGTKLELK | 3.8 |
